Would you mind telling me the reported IC50, OVCAR3 in vitro cell killing assay (CellTiter-Glo, 5 days) of each entry?
test-system: T1, human TAT226 expressed on the surface of OVCAR3 cells (human, UniProt Q8N2G4 21-117)
T1 sequence: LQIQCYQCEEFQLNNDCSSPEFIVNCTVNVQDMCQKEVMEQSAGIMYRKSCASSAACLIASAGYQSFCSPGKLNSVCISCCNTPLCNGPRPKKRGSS
test-summary: cell-based or functional assay

Would you please look over these solved cases?
{"binder": "YWO.49.H6-MC-vc-PAB-MMAF (antibody, V domains shown, MC-vc-PAB-MMAF conjugated to cysteine residues of the partially reduced antibody; average drug load 4.4 per antibody) VH: EVQLVESGGGLVQPGGSLRLSCAASGFTITNYGIHWVRQAPGKGLEWVGRIYPDSGATYYADSVKGRFTISADTSKNTAYLQMNSLRAEDTAVYYCARKLWISIAGMDYWGQGTLVTVSS VL: DIQMTQSPSSLSASVGDRVTITCRASQDVSTAVAWYQQKPGKAPKLLIYSASFLYSGVPSRFSGSGSGTDFTLTISSLQPEDFATYYCQHSYATPFTFGQGTKVEIKR", "result": "~0.005 nM"}
{"binder": "YWO.49.H2-MC-vc-PAB-MMAF (antibody, V domains shown, MC-vc-PAB-MMAF conjugated to cysteine residues of the partially reduced antibody; average drug load 4.7 per antibody) VH: EVQLVESGGGLVQPGGSLRLSCAASGFTITNYGIHWVRQAPGKGLEWVGRIYPDSGATYYADSVKGRFTISADTSKNTAYLQMNSLRAEDTAVYYCARKLWVSLAPMDYWGQGTLVTVSS VL: DIQMTQSPSSLSASVGDRVTITCRASQDVSTAVAWYQQKPGKAPKLLIYSASFLYSGVPSRFSGSGSGTDFTLTISSLQPEDFATYYCQQSYGTPFIFGQGTKVEIKR", "result": "~0.005 nM"}
{"binder": "YWO.49.H6-MC-vc-PAB-MMAE (antibody, V domains shown, MC-vc-PAB-MMAE conjugated to cysteine residues of the partially reduced antibody; average drug load 4.4 per antibody) VH: EVQLVESGGGLVQPGGSLRLSCAASGFTITNYGIHWVRQAPGKGLEWVGRIYPDSGATYYADSVKGRFTISADTSKNTAYLQMNSLRAEDTAVYYCARKLWISIAGMDYWGQGTLVTVSS VL: DIQMTQSPSSLSASVGDRVTITCRASQDVSTAVAWYQQKPGKAPKLLIYSASFLYSGVPSRFSGSGSGTDFTLTISSLQPEDFATYYCQHSYATPFTFGQGTKVEIKR", "result": "~0.2 nM"}

# ---- query binder ----
GET /value?item= YWO.49.H2-MC-vc-PAB-MMAE (antibody, V domains shown, MC-vc-PAB-MMAE conjugated to cysteine residues of the partially reduced antibody; average drug load 3.8 per antibody) VH: EVQLVESGGGLVQPGGSLRLSCAASGFTITNYGIHWVRQAPGKGLEWVGRIYPDSGATYYADSVKGRFTISADTSKNTAYLQMNSLRAEDTAVYYCARKLWVSLAPMDYWGQGTLVTVSS VL: DIQMTQSPSSLSASVGDRVTITCRASQDVSTAVAWYQQKPGKAPKLLIYSASFLYSGVPSRFSGSGSGTDFTLTISSLQPEDFATYYCQQSYGTPFIFGQGTKVEIKR &field=IC50, OVCAR3 in vitro cell killing assay (CellTiter-Glo, 5 days) returns ~0.2 nM
